Test system: NCI/ADR-RES ovarian
Test: NCI-60 one-dose screen, 48 h
Conditions: 10 µM
This is part of a sample that, as a whole, favours compounds with a hit. Of some 83,000 tested, about 20% had one in any assay. The source made the active and inactive calls. Rule for the calls: active = growth percent below 10; inactive = the rest.
I would appreciate it if you answered using one of these outcomes: y for active, n for inactive

These recorded examples may help you get a feel for the data.
COc1ccc(/C(=C2/O[C@@H]([C@H]3COC(C)(C)O3)[C@H]3OC(C)(C)O[C@@H]23)c2cc(OC)c(OC)c(OC)c2)cc1O | y
Cc1ccc(NC(=O)CSc2nc3ccccc3c(=O)n2CCc2ccccc2)c(C(=O)O)c1 | n
Cc1cc(C)c2c(n1)sc1c(Nc3ccc(Cl)cc3)ncnc12 | n
O=[N+]([O-])c1ccc(Oc2cc(Cl)c(Cl)cc2Cl)c(C(F)(F)F)c1 | n
COc1ccc(Cl)cc1C(=O)Nc1nc2ccc(Cl)cc2s1 | n

-- ask Per the records of this test, what outcome belongs to CC1CN(Cc2ccccc2)C(=O)NC1=O (stereo unspecified) ?
-- reply n

-- ask // query: N=C1c2nc3n(c2C(=O)c2nc4n(c21)CCCC4)CCCC3
-- reply n

-- ask // query: O=C(CCCCC[P+](c1ccccc1)(c1ccccc1)c1ccccc1)NC(COC(=O)C(Cl)Cl)(COC(=O)C(Cl)Cl)COC(=O)C(Cl)Cl
-- reply n

-- ask // query: Nc1ncnc2[nH]c(=O)[nH]c12
-- reply n

-- ask // query: CC(C)(C#N)Nc1ccccc1
-- reply n

-- ask // query: Cc1ccc(NC(=O)Nc2c(Cl)cccc2Cl)cn1
-- reply n

-- ask // query: COc1ccc(-c2nc(-c3nc4ccc(Cl)cc4[nH]3)c3ccccn23)cc1
-- reply n

* * *

Test system: SF-295 CNS
Test: NCI-60 one-dose screen, 48 h (100 = growth as untreated, 0 = no growth, -100 = all killed)
Settings: 10 µM
About 83,000 compounds went through this panel and 20% of them were active in at least one assay; those are over-represented in the sample as a whole.
Could you label it True if measured growth is 40% or higher, and False otherwise?

Cc1ccc(-c2nc(/C=C3/C(=O)N(C)c4ccc(F)cc43)c3ccccn23)cc1 | True
Cc1cc(N(CCCNc2ccnc3cc(Cl)ccc23)Cc2cccs2)nc(Cl)n1 | False

-- ask API: above_or_equal(metric=growth, cutoff=40%) for item COC(=O)C(C(C[N+](=O)[O-])c1ccccc1)=P(c1ccccc1)(c1ccccc1)c1ccccc1 (configuration not stated)
-- reply True

-- ask // query: O=C1Nc2ccc(Cl)cc2/C1=C\c1c(-c2ccc(Cl)cc2)nc2sc(C3CC3)nn12
-- reply True

-- ask // query: c1ccc(CP(Cc2ccccc2)c2ccccc2)cc1
-- reply True

-- ask // query: C=C(NC(=O)C(=C)NC(=O)c1csc(C2=NC3c4csc(n4)C4NC(=O)c5csc(n5)C(C(C)(O)C(C)O)NC(=O)C5CSC(=N5)/C(=C/C)NC(=O)C(C(C)O)NC(=O)c5csc(n5)C3(CC2)NC(=O)C(C)NC(=O)C(=C)NC(=O)C(=C)NC(=O)C(C(C)C)NC2C=Cc3c(C(C)O)cc(nc3C2O)C(=O)OC4C)n1)C(N)=O (configuration not stated)
-- reply False

-- ask // query: CN(C)Cc1cn(-c2ncc(-c3ccc(C(F)(F)F)cc3)c(NC3CCCCCC3)n2)nn1
-- reply True
